Data provenance is patent US12195427B2.

System under test: MASP-2 CCP2-SP (Homo sapiens (Human), UniProt O00187)
Sequence (O00187 445-686): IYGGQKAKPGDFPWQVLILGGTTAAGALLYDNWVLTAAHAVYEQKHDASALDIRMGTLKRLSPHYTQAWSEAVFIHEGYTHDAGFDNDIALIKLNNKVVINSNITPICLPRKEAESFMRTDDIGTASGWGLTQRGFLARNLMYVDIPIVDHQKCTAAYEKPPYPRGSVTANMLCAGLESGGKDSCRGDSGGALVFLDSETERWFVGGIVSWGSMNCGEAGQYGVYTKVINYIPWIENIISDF
Sequence (O00187 364-432 partner): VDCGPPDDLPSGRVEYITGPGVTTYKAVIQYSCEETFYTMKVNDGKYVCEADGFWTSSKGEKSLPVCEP
Experiment notes: MASP-2 co-crystallization, X-ray crystallography and structure analysis (H-bonds, van der Waals contacts);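 as to Ligand-pharmacophore element distance, pharmacophore element CA3: distance from averaged pharmacophore element to bound ligand; missing value means element absent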
Settings: Table A4-1; element CA3
Endpoint: Ligand-pharmacophore element distance, pharmacophore element CA3
Write no unit; give the number alone.

Some molecules with recorded Ligand-pharmacophore element distance, pharmacophore element CA3:
[
  {
    "Molecule": "C[C@H](NC(=O)[C@@H](CCc1ccccc1)NCc1ccc(C(=O)N2CCOCC2)cc1)C(=O)NCc1ccc(C(=N)N)cc1.Cl.Cl",
    "System under test": "MASP-2 CCP2-SP (Homo sapiens (Human), UniProt O00187)",
    "Endpoint value": 0
  },
  {
    "Molecule": "C[C@H](NC(=O)[C@H]1C[C@H](c2ccccc2)CN1)C(=O)NCc1ccc2c(N)nccc2c1",
    "System under test": "MASP-2 CCP2-SP (Homo sapiens (Human), UniProt O00187)",
    "Endpoint value": 0
  },
  {
    "Molecule": "C[C@H](NC(=O)[C@H]1C[C@@H](c2ccccc2)CCN1)C(=O)NCc1ccc(C(=N)N)cc1 (stereo in doubt)",
    "System under test": "MASP-2 CCP2-SP (Homo sapiens (Human), UniProt O00187)",
    "Endpoint value": 0
  },
  {
    "Molecule": "C[C@H](NC(=O)[C@H]1C[C@@H](c2ccccc2)CCN1)C(=O)NCc1cc(Cl)ccc1O.Cl [1078_1]",
    "System under test": "MASP-2 CCP2-SP (Homo sapiens (Human), UniProt O00187)",
    "Endpoint value": 0
  },
  {
    "Molecule": "C[C@H](NC(=O)[C@H]1C[C@H](Cc2ccccc2)CN1)C(=O)NCc1cnc2[nH]cc(Cl)c2c1",
    "System under test": "MASP-2 CCP2-SP (Homo sapiens (Human), UniProt O00187)",
    "Endpoint value": 0
  },
  {
    "Molecule": "C[C@H](NC(=O)[C@H]1C[C@@H](c2ccccc2)CN1)C(=O)NCc1ccc2c(N)nccc2c1.Cl.Cl [1089_B]",
    "System under test": "MASP-2 CCP2-SP (Homo sapiens (Human), UniProt O00187)",
    "Endpoint value": 0
  }
]

Kindly review the next molecule as well.
The molecule identified as C[C@H](NC(=O)[C@H]1C[C@@H](c2ccccc2)CCN1)C(=O)NCc1cnc2[nH]cc(Cl)c2c1 registered its Ligand-pharmacophore element distance, pharmacophore element CA3 at 0

====

Catalogue of molecules with associated Pharmacophore protein distance to MET_658 (second MET_658 column)
System under test: MASP-2 CCP2-SP (Homo sapiens (Human))
Experiment notes: MASP-2 co-crystallization, X-ray crystallography and structure analysis (H-bonds, van der Waals contacts)
Settings: Table A8-6; 9th residue column; nearest protein atom in cell to the left
Write no unit; give the number alone.

Some molecules with recorded Pharmacophore protein distance to MET_658 (second MET_658 column):
[
  {
    "Molecule": "N=C(N)c1ccc(CNC(=O)[C@@H]2CCN2C(=O)[C@H](NCC(=O)O)C2Cc3ccccc3C2)cc1",
    "Endpoint value": 3.11
  },
  {
    "Molecule": "CNC(=O)c1ccc2c(=O)n(Cc3ccccc3)c(=O)n(CC(=O)NCc3ccc(C(=N)N)cc3)c2c1",
    "Endpoint value": 2.86
  },
  {
    "Molecule": "C[C@H](NC(=O)C1C[C@@H](c2ccccc2)CCN1)C(=O)NCc1ccc(C(=N)N)cc1 (stereo in doubt)",
    "Endpoint value": 2.75
  },
  {
    "Molecule": "C[C@H](NC(=O)[C@H](N)C1Cc2ccccc2C1)C(=O)NCc1ccc2c(N)nccc2c1.Cl.Cl [1088_A]",
    "Endpoint value": 3.12
  },
  {
    "Molecule": "C[C@H](NC(=O)[C@H](N)CCc1cc(Cl)cc(Cl)c1)C(=O)NCc1ccc(C(=N)N)cc1",
    "Endpoint value": 3.28
  },
  {
    "Molecule": "C[C@H](NC(=O)[C@H](N)CCCc1ccccc1)C(=O)NCc1ccc(C(=N)N)cc1.Cl.Cl [1042_1]",
    "Endpoint value": 3.40
  },
  {
    "Molecule": "C[C@H](NC(=O)[C@H](N)CCc1cccc(Cl)c1)C(=O)NCc1ccc(C(=N)N)cc1",
    "Endpoint value": 3.70
  },
  {
    "Molecule": "C[C@H](NC(=O)[C@H]1C[C@@H](c2ccccc2)CCN1)C(=O)NCc1cc(Cl)ccc1O.Cl [1078_10]",
    "Endpoint value": 3.81
  },
  {
    "Molecule": "C[C@H](NC(=O)[C@H](N)CCCc1ccccc1)C(=O)NCc1ccc(C(=N)N)cc1.Cl.Cl [1042_2]",
    "Endpoint value": 4.17
  },
  {
    "Molecule": "C[C@H](NC(=O)[C@@H](CCc1ccccc1)NCc1ccc(C(=O)N2CCOCC2)cc1)C(=O)NCc1ccc(C(=N)N)cc1.Cl.Cl",
    "Endpoint value": 3.26
  }
]

The molecule identified as CC(NC(=O)C(CCc1ccccc1)NCc1ccc(C(=O)N2CCOCC2)cc1)C(=O)NCc1ccc(C(=N)N)cc1.Cl.Cl (stereo not drawn) registered its Pharmacophore protein distance to MET_658 (second MET_658 column) at 3.26

The molecule identified as C[C@H](NC(=O)[C@H]1C[C@@H](c2ccccc2)CN1)C(=O)NCc1ccc2c(N)nccc2c1.Cl.Cl [1089_B] registered its Pharmacophore protein distance to MET_658 (second MET_658 column) at 3.31

The molecule identified as C[C@H](NC(=O)[C@H]1C[C@@H](c2ccccc2)CCN1)C(=O)NCc1cc(Cl)ccc1O.Cl [1078_1] registered its Pharmacophore protein distance to MET_658 (second MET_658 column) at 3.50

The molecule identified as C[C@H](NC(=O)[C@H]1C[C@@H](c2ccccc2)CN1)C(=O)NCc1ccc2c(N)nccc2c1.Cl.Cl [1089_A] registered its Pharmacophore protein distance to MET_658 (second MET_658 column) at 3.31

The molecule identified as C[C@H](NC(=O)[C@H](N)CCc1ccccc1)C(=O)NCc1ccc(N)nc1.Cl.Cl [1007_2] registered its Pharmacophore protein distance to MET_658 (second MET_658 column) at 3.37
